# pIC50 annotations
System: TMD8 cells
EXPERIMENT: 4-day proliferation assay, TMD8
Type: cell-based
EXPERIMENTAL_CONTEXT: Homo sapiens, 96 h, 4 days incubation, CellTiterGLO, read-out: Anti-proliferation: TMD-8 IC50
pIC50: −log10 of the molar value.

As a guide, the following entries are already answered.
>  <MOL_SMILES>
O=C(Nc1cnc(-n2nccn2)c(Cl)c1)c1cnn(-c2nccc3ccccc23)c1C(F)(F)F

>  <pIC50>
~5.05

$$$$
>  <MOL_SMILES>
Cn1nc(-c2ncc(NC(=O)c3cnn(-c4cccc5ncccc45)c3C(F)(F)F)cc2C#N)cc1N

>  <pIC50>
< 5.10

$$$$
>  <MOL_SMILES>
Cc1ncn(-c2ncc(NC(=O)c3cnn(-c4cncc5ccccc45)c3C(F)(F)F)cc2Cl)n1

>  <pIC50>
~4.87

$$$$

Qu. pIC50 lookup needed for O=C(Nc1cnc(-n2ccnc2)c(Cl)c1)c1cnn(-c2cncc3ccccc23)c1C(F)(F)F , thanks.
Ans. ~4.86

====

Test system: IL10 secretion by TMD8 ABC-DLBCL cells
EXPERIMENT: Human IL10 Mesoscale assay (TMD-8)
Assay type: cell-based
EXPERIMENTAL_CONTEXT: Homo sapiens, TMD8; TMD-8 cells, 24 h
PROPERTY_NAME: IC50 (nM)
Give the number; nM is assumed, so skip it.

As a guide, the following entries are already answered.
>  <MOL_SMILES>
CN1CCN(c2ncc(NC(=O)c3cnn(-c4cccc5ncccc45)c3C(F)(F)F)cc2C#N)CC1

>  <TESTED_SYSTEM>
IL10 secretion by TMD8 ABC-DLBCL cells

>  <MEAS_VALUE>
832

$$$$
>  <MOL_SMILES>
O=C(Nc1ccc(-n2nccn2)c(Cl)c1)c1cnn(-c2cncc3ccccc23)c1C(F)(F)F

>  <TESTED_SYSTEM>
IL10 secretion by TMD8 ABC-DLBCL cells

>  <MEAS_VALUE>
14

$$$$
>  <MOL_SMILES>
N#Cc1cc(NC(=O)c2cnn(-c3cc(Cl)nc4ccccc34)c2C(F)(F)F)cnc1-n1nccn1

>  <TESTED_SYSTEM>
IL10 secretion by TMD8 ABC-DLBCL cells

>  <MEAS_VALUE>
468

$$$$

Qu. IC50 lookup needed for O=C(Nc1cnc(-n2nccn2)c(Cl)c1)c1cnn(-c2cncc3ccccc23)c1C(F)(F)F , thanks.
Ans. 14

Qu. IC50 lookup needed for CN1CCN(C(=O)c2ncc(NC(=O)c3cnn(-c4cncc5ccccc45)c3C(F)(F)F)cc2C#N)CC1 , thanks.
Ans. 676

Qu. IC50 lookup needed for Cc1nc(-n2nccn2)c(C#N)cc1NC(=O)c1cnn(-c2cncc3c(F)cccc23)c1C(F)(F)F , thanks.
Ans. 15

Qu. IC50 lookup needed for CCOc1ncc(NC(=O)c2cnn(-c3cccc4ncccc34)c2C(F)(F)F)cc1C#N , thanks.
Ans. 138

Qu. IC50 lookup needed for N#Cc1cc(NC(=O)c2cnn(-c3cccc4ncccc34)c2C(F)(F)F)cnc1-n1cncn1 , thanks.
Ans. 148

Qu. IC50 lookup needed for COc1ncc(NC(=O)c2cnn(-c3cccc4c(=O)[nH]ccc34)c2C(F)(F)F)cc1C#N , thanks.
Ans. 240

Qu. IC50 lookup needed for O=C(Nc1cnc(-n2nccn2)c(Cl)c1)c1cnn(-c2cccc3occc23)c1C(F)(F)F , thanks.
Ans. 7

Qu. IC50 lookup needed for O=C(Nc1cnc(-n2nccn2)c(Cl)c1)c1cnn(-c2cccc3c(=O)[nH]ccc23)c1C(F)(F)F , thanks.
Ans. 25
